Test system: HepG2
Assay: Cytotoxicity against human HepG2 cells after 3 days by MTT assay
Type: functional, cell-based
Details: HepG2, 72 h
For each record, check the reported IC50: if it is below 8 µg/mL write Condition met, else write Condition not met.

Report whether reported IC50 is lower than 8 µg/mL (strictly) for "CC1=CC[C@@H]2C(C)(C)[C@@H](O)CC[C@@]2(C)[C@@H]1COc1ccc2ccc(=O)oc2c1" Condition met

Report whether reported IC50 is lower than 8 µg/mL (strictly) for CCC(C)SSC/C=C/OS(C)=O (stereo not given) [FOETISULFIDE C] Condition not met

Report whether reported IC50 is lower than 8 µg/mL (strictly) for CC(=O)OC(CC=C(C)C)/C(C)=C/[C@@H](O)C/C(C)=C/COc1ccc2ccc(=O)oc2c1 (stereo not given in full) Condition not met

Report whether reported IC50 is lower than 8 µg/mL (strictly) for "C[C@@H]1C[C@@H](O)[C@]2(C)[C@@H](C)C(=O)CC[C@H]2[C@]1(C)COc1ccc2ccc(=O)oc2c1" Condition not met

Report whether reported IC50 is lower than 8 µg/mL (strictly) for COC(=O)CC[C@H]1C(=C(C)C)CC[C@H](C)[C@]1(C)COc1ccc2ccc(=O)oc2c1 [METHYL GALBANATE] Condition not met

Report whether reported IC50 is lower than 8 µg/mL (strictly) for "C=C1CC[C@]2(C)C(C)(C)[C@@H](OC(C)=O)CC[C@]2(C)[C@H]1COc1ccc2ccc(=O)oc2c1" Condition not met

Report whether reported IC50 is lower than 8 µg/mL (strictly) for "COc1cc(C=O)ccc1O" Condition not met

Report whether reported IC50 is lower than 8 µg/mL (strictly) for "COc1cccc2c1C(=O)c1c(O)c3c(c(O)c1C2=O)C[C@@](O)(C(=O)CO)C[C@@H]3O[C@H]1C[C@H](N)[C@H](O)[C@H](C)O1" Condition met

Report whether reported IC50 is lower than 8 µg/mL (strictly) for "C=C1CC[C@@H]2C(C)(C)[C@H](O)CC[C@@]2(C)[C@H]1COc1ccc2ccc(=O)oc2c1" Condition not met

Report whether reported IC50 is lower than 8 µg/mL (strictly) for "C/C(=C\COc1ccc2ccc(=O)oc2c1)CC/C=C(\C)CC[C@@H](O)C(C)(C)O" Condition not met

====

System: Influenza A virus
Experiment: Antiviral activity against Influenza A virus H1N1 infected in MDCK cells assessed as inhibition of virus-induced cytopathic effect after 3 days by XTT assay
Assay type: functional, organism-based
Conditions: 72 h
Exercise: for every item that follows, state its recorded IC90.
Just so you know, I need the unit written after the number.

Recall the recorded IC90 for "CC(C)=CCC/C(C)=C/[C@@H](O)C/C(C)=C/COc1ccc2ccc(=O)oc2c1" with Influenza A virus and state it. 0.62 mg/L

Recall the recorded IC90 for CC(=O)OC(CC=C(C)C)/C(C)=C/[C@@H](O)C/C(C)=C/COc1ccc2ccc(=O)oc2c1 (stereo partly drawn) with Influenza A virus and state it. 1.56 mg/L

Recall the recorded IC90 for C/C(=C\COc1ccc2ccc(=O)oc2c1)CC[C@@H]1C(C)(C)[C@H]2CC[C@]1(C)O2 [FARNESIFEROL C] with Influenza A virus and state it. 0.5 mg/L

Recall the recorded IC90 for CC1=CC(=O)[C@@H]2C(C)(C)[C@H](O)CC[C@@]2(C)[C@@H]1COc1ccc2ccc(=O)oc2c1 [LIGUPERSIN A] with Influenza A virus and state it. 1.75 mg/L

Recall the recorded IC90 for "CC1=CC(=O)[C@@H]2C(C)(C)C(=O)CC[C@@]2(C)[C@@H]1COc1ccc2ccc(=O)oc2c1" with Influenza A virus and state it. 0.37 mg/L

Recall the recorded IC90 for C=C1CC[C@@H]2C(C)(C)[C@H](O)CC[C@@]2(C)[C@H]1COc1ccc2ccc(=O)oc2c1 [FARNESIFEROL A] with Influenza A virus and state it. 0.64 mg/L

Recall the recorded IC90 for CC1=CC[C@@H]2C(C)(C)[C@@H](O)CC[C@@]2(C)[C@@H]1COc1ccc2ccc(=O)oc2c1 [CONFEROL] with Influenza A virus and state it. 0.83 mg/L

Recall the recorded IC90 for "C/C(=C\COc1ccc2ccc(=O)oc2c1)CC/C=C(\C)CC[C@@H](O)C(C)(C)O" with Influenza A virus and state it. 2.05 mg/L
